Below: a set of entries, each annotated with reported GI50.
- System: SK-OV-3
- ASSAY: NCI tumour cell line growth inhibition, 48 h
Activity calls are given as the source filed them. Cut-off read from the data, not from the text of the source: active = GI50 up to about 1.1 µM and inactive = higher.

MOLECULE	GI50
N#CCN(CC#N)C1CC=CCC1N(CC#N)CC#N (stereo not given)	> 100 µM (inactive)
C/C(=N/NC(=S)N1CCCCCC1)c1ccccc1O	12.7 µM (inactive)
Cc1ccc(NCCCN2CCN(CCCNc3ccc(C)c4sc5ccccc5c(=O)c34)CC2)c2c(=O)c3ccccc3sc12	> 100 µM (inactive)
N#CC1(C2SCC[S+]2[O-])C2=C(C(=O)c3ccccc3C2=O)N2CCCC21 (stereo not given)	15.3 µM (inactive)
CC12CC(OC(=O)[C@]1(C)O)[C@@H]([C@]1(O)CC[C@H]3[C@@H]4C[C@H]5O[C@]56[C@@H](O)C=CC(=O)[C@]6(C)[C@H]4CC[C@@]31C)C2 (stereo not given in full)	34.1 µM (inactive)
N[C@H]1c2c(Br)sc(Br)c2C(=O)[C@H]1O	12.3 µM (inactive)
COC(=O)NC(C(F)(F)F)(C(F)(F)F)P1(=O)OCCCO1	18.9 µM (inactive)
Nc1nc(-c2cccc([N+](=O)[O-])c2)cc(-c2cc(-c3cccc([N+](=O)[O-])c3)nc(N)n2)n1	> 100 µM (inactive)
CC(=O)NCC1OC2COC(c3ccccc3)OC2C(NC(=O)c2ccccc2)C1OC(=O)c1ccccc1 (stereo not given)	> 100 µM (inactive)
Fc1ccc(C2SCc3nc4ccccc4n32)c(F)c1 (stereo not given)	> 100 µM (inactive)
COc1ccc(C(=O)NCCC2CN(S(=O)(=O)C(F)(F)F)c3ccccc32)c(OC)c1 (stereo not given)	> 100 µM (inactive)
Cc1ccc(S(=O)(=O)N2c3ccccc3[C@H]3CCC=C[C@H]32)cc1	2.54 µM (inactive)
N#Cc1c(C#N)c(-c2ccccc2)n(/N=C\c2ccccc2)c1N	14.1 µM (inactive)
Clc1ccc(C(c2ccc(Cl)cc2)c2cncnc2)cc1	16 µM (inactive)
CN(C)CCN1C(=O)CC[C@@]2(C)C1=CC[C@@H]1[C@@H]2CC[C@@]2(C)[C@H]1CC[C@]2(C)O	> 100 µM (inactive)
COc1cc(Oc2c(C)c(Cl)c(OC)c(Cl)c2OC)c2c(c1Cl)COC2=O	41.5 µM (inactive)
CCOc1nc2c(N3CCCC3)nc(N3CCNCC3)nc2nc1NCc1ccccc1	1.57 µM (inactive)
NS(=O)(=O)C1CCCCC1C(=O)NNC(=O)C(=O)Nc1nnc(S)[nH]1 (stereo not given)	> 100 µM (inactive)
c1cc(CCN2CCCCC2)ccn1	> 100 µM (inactive)
C/C(=N\O)C(CN(C)C)C(c1ccccc1)c1c(O)c2ccccc2oc1=O (stereo not given)	> 100 µM (inactive)
O=C1C(Cl)C(c2cc(Br)ccc2O)N1n1cnc2ccccc2c1=O (stereo not given)	20 µM (inactive)
OC(c1cc(-c2ccc(Cl)cc2)nc2ccccc12)C1CCCCN1 (stereo not given)	2.16 µM (inactive)
CC(C)Oc1cccc(N2C(NCc3c[nH]c4ccccc34)=Nc3ccncc3S2(=O)=O)c1	33.2 µM (inactive)
O=C1C2CC=CCC2C(=O)N1n1c(Cc2ccc(Cl)cc2)n[nH]c1=O (stereo not given)	> 100 µM (inactive)
Cc1nc(-c2ccccc2)c(-c2ccccc2)s1	22.9 µM (inactive)
O=C1c2ccccc2C2C1C(c1ccccc1)C1(Cc3ccccc3C1=O)C2c1ccccc1 (stereo not given)	> 100 µM (inactive)
O=C1Nc2ccccc2S/C1=C\c1ccc(C(F)(F)F)cc1	> 100 µM (inactive)
COc1cc(C2(O)c3ccccc3C3=NCCN32)cc(OC)c1OC (stereo not given)	> 100 µM (inactive)
OC[C@H]1CC(c2nn[nH]n2)[C@H](O)[C@@H]1O (stereo not given in full)	> 100 µM (inactive)
CC(=O)OC1C/C(C)=C/[C@H](O)CC(C)/C=C/[C@@]2(C)CCC(C(C)(C)O)C12 (stereo not given in full)	> 100 µM (inactive)
Oc1c(/N=N\c2ccccc2)c2cccc3ccc4cccc1c4c32	> 100 µM (inactive)
CC(C)(Br)C(=O)C(Br)Br	17.5 µM (inactive)
CC(=O)OC1CC[C@@]2(C)C(CC(OC3OC(CO)C(O)C(O)C3O)[C@]3(C)C2CCC24CC23CC[C@H]4C(C)CC(O)[C@@H](O)C(C)(C)O)C1(C)C (stereo not given in full)	> 50 µM (inactive)
Cc1ccsc1/C=N/Nc1ccccn1	> 100 µM (inactive)
CC1=C(/C=C/C(C)=C/C=C/C(C)=C/C(=O)O)C(C)(C)CCC1	> 71.8 µM (inactive)
CCc1n[nH]c(=O)n1CCO	> 100 µM (inactive)
CC1(C)CCCC(C)(C2CCC3(C)C2C(O)CC2C4(C)CCC(O)C(C)(C)C4CCC23C)O1 (stereo not given)	46.2 µM (inactive)
O=c1c2cccnc2ncn1CCN1CCCCC1	> 100 µM (inactive)
CCCCCCCCCCCCCCCCSS(C)(=O)=O	97.9 µM (inactive)
COC(=O)C(=O)Cc1nc2ccccc2s1	> 100 µM (inactive)
Cc1ccc2c(c1)CC1(C2=O)[C@H](c2ccccc2)C2C(=O)c3ccc(C)cc3C2[C@H]1c1ccccc1 (stereo not given in full)	> 100 µM (inactive)
O=C(Cn1ccnc1[N+](=O)[O-])c1ccc(F)cc1	> 100 µM (inactive)
O=[PH](O)c1cccs1	> 100 µM (inactive)
O=C1C(=C(C(F)(F)Cl)C(F)(F)Cl)C2CCC1C2 (stereo not given)	> 10 µM (inactive)
COc1cc(C)c(/C=C/C(=O)N2C(=O)OC[C@@H]2c2ccccc2)c(C)c1	> 100 µM (inactive)

Origin of the recorded values: ChEMBL document CHEMBL1201862
